# residual activity per entry
TARGET ENTITY: WNK3 (human) (UniProt Q9BYP7)
Sequence (Q9BYP7 whole entry, looked up): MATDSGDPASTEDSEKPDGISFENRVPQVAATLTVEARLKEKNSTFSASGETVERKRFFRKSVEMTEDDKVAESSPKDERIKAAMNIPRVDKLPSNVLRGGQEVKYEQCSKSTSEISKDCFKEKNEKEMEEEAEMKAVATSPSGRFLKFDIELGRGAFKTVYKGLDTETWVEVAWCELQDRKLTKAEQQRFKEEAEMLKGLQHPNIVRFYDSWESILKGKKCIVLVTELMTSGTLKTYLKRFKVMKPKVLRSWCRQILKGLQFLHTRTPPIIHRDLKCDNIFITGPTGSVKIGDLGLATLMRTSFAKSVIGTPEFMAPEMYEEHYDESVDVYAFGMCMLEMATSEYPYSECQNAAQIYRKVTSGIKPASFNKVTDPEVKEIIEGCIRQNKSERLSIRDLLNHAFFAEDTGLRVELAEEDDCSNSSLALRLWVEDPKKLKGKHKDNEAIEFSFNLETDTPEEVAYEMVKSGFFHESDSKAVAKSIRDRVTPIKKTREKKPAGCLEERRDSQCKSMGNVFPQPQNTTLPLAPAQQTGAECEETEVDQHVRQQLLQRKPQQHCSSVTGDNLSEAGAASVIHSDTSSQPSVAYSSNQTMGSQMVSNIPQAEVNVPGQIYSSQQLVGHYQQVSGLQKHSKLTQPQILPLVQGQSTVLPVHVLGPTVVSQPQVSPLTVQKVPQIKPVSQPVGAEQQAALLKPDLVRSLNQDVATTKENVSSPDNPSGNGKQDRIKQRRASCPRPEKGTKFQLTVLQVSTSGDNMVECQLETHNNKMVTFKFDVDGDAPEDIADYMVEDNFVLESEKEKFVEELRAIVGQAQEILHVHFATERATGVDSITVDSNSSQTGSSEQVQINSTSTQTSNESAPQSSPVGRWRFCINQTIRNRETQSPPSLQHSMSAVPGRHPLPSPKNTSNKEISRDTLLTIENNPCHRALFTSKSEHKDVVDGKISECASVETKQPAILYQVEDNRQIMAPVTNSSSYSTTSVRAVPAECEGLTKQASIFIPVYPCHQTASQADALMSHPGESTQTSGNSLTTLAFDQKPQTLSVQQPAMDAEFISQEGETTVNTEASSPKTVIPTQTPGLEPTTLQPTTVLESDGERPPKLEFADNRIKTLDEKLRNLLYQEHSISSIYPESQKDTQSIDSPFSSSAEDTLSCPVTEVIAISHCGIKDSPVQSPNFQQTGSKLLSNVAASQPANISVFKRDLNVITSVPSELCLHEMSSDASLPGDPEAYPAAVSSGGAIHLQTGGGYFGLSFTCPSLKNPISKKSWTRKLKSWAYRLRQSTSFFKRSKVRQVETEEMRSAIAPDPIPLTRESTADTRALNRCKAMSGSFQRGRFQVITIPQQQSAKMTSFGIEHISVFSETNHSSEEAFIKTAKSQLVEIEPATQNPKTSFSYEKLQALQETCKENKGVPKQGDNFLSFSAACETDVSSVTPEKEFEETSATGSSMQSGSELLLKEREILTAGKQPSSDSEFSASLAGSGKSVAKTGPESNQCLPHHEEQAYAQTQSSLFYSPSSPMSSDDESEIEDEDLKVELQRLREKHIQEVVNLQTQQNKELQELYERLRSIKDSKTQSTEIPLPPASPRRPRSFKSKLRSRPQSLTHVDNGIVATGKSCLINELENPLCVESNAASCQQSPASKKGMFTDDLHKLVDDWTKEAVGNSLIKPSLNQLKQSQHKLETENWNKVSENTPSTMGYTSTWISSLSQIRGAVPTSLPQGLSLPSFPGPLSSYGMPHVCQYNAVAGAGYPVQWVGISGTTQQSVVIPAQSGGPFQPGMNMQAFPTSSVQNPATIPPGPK
ASSAY COMMENT: radiometric filter-binding kinase assay, Kinase HotSpot
CONDITION PARAMETERS: compound 0.5 µM; ATP 10 µM
Note: unit % is implicit; provide only the numeric part.

Past entries and their recorded results:
1. Cc1ccc(S(=O)(=O)/C=C/C#N)cc1
110
2. Cc1ccc(NC2=CC(=O)c3sc(C)nc3C2=O)cc1
102
3. CNC(=O)c1cc(Oc2ccc(NC(=O)Nc3ccc(Cl)c(C(F)(F)F)c3)cc2)ccn1
99.2
4. O=C1NC(=O)c2c1c1c3ccccc3n3c1c1c2c2ccccc2n1C1CCC3O1
86
5. COc1cc2ncnc(Nc3cccc(Cl)c3)c2cc1OC
97.8

[ask] Quick check: residual activity of CNc1cc2c(Nc3cccc(Br)c3)ncnc2cn1 ?
[reply] 97.4

[ask] Quick check: residual activity of CCN(CC)C(=O)c1ccc(Nc2nc(OCC3CCCCC3)c3nc[nH]c3n2)cc1 ?
[reply] 80.6

[ask] Quick check: residual activity of N#CC(C#N)=C(N)/C(C#N)=C/c1ccc(O)cc1 ?
[reply] 99.8

[ask] Quick check: residual activity of COc1ccc(COc2ccc(Cc3cnc(N)nc3N)cc2OC)cc1 ?
[reply] 100

[ask] Quick check: residual activity of CCN(CC)CCNC(=O)c1c(C)[nH]c(/C=C2\C(=O)Nc3ccc(Cl)cc32)c1C ?
[reply] 86.3

[ask] Quick check: residual activity of CC(C)N(CCC(=O)c1ccc2ccccc2c1)Cc1ccccc1 ?
[reply] 97

---

TARGET ENTITY: STK33 (human) (UniProt Q9BYT3)
Sequence (Q9BYT3 whole entry, looked up): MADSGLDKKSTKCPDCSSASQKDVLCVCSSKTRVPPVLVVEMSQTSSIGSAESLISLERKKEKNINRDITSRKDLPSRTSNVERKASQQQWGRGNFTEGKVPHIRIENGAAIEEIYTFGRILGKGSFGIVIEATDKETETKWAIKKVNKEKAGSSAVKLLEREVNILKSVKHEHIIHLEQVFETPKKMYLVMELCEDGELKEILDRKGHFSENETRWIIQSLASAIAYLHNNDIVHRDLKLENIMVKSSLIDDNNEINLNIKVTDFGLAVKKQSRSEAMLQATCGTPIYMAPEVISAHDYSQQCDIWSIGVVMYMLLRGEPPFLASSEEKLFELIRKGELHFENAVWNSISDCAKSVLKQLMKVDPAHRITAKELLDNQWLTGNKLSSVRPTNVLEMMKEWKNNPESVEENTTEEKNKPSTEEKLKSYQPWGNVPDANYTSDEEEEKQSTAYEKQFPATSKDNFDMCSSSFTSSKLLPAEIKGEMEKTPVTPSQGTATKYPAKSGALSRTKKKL
ASSAY COMMENT: radiometric filter-binding kinase assay, Kinase HotSpot
CONDITION PARAMETERS: compound 0.5 µM; ATP 10 µM
# residual activity per entry
Note: unit % is implicit; provide only the numeric part.

Past entries and their recorded results:
1. O=[N+]([O-])/C=C/c1ccc2c(c1)OCO2
94.2
2. Nc1cccc(-c2cc3c(Oc4cccc(O)c4)ncnc3[nH]2)c1
80.3
3. Nc1ncnc2c1c(-c1ccc(Oc3ccccc3)cc1)cn2C1CCCC1
92.3
4. c1ccc(-c2n[nH]cc2-c2ccnc3ccccc23)nc1
92.9
5. COc1ccc2c(c[n+](C)c3c4cc5c(cc4ccc23)OCO5)c1OC
102

[ask] Quick check: residual activity of CCN(CC)CCNC(=O)c1c(C)[nH]c(/C=C2\C(=O)Nc3ccc(F)cc32)c1C ?
[reply] 31.8

[ask] Quick check: residual activity of O=C1NC(=O)C(c2cn(CCCn3ccnc3)c3ccccc23)=C1Nc1ccccc1 ?
[reply] 82.9

---

# residual activity per entry
TARGET ENTITY: NEK4 (human) (UniProt P51957)
Sequence (P51957 whole entry, looked up): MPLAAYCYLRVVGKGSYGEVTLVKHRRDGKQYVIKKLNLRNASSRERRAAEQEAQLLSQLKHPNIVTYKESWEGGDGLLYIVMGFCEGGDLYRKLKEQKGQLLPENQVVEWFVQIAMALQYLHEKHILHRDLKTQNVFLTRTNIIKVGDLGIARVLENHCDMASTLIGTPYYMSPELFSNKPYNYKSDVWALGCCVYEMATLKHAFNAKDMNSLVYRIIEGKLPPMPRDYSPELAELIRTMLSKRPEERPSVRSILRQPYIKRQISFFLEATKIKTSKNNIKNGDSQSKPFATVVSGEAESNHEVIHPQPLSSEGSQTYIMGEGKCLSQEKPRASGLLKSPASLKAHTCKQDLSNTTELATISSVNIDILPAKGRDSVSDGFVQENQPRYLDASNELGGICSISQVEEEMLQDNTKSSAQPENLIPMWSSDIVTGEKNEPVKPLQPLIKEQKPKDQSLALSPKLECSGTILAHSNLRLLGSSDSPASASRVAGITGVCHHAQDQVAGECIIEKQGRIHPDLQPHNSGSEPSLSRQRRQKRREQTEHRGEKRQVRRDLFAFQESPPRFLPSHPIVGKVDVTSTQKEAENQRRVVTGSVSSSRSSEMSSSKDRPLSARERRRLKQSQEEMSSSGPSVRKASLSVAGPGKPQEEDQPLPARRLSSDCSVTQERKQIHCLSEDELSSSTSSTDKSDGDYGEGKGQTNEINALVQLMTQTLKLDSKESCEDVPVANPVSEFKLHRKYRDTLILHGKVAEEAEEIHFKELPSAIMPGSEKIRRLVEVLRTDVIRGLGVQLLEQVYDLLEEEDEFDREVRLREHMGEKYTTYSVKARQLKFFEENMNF
ASSAY COMMENT: radiometric filter-binding kinase assay, Kinase HotSpot
CONDITION PARAMETERS: compound 0.5 µM; ATP 10 µM
Note: unit % is implicit; provide only the numeric part.

1. CC#CC(=O)Nc1cc2c(Nc3ccc(F)c(Cl)c3)ncnc2cn1
85.8
2. Cc1ccc(Nc2nccc(N(C)c3ccc4c(C)n(C)nc4c3)n2)cc1S(N)(=O)=O
91.1
3. CO[C@H]1CC2CC[C@@H](C)[C@@](O)(O2)C(=O)C(=O)N2CCCC[C@H]2C(=O)OC([C@H](C)C[C@@H]2CC[C@@H](O)[C@H](OC)C2)CC(=O)[C@H](C)/C=C(\C)[C@@H](O)[C@@H](OC)C(=O)[C@H](C)C[C@H](C)/C=C/C=C/C=C/1C (stereo partly drawn)
97.2
4. CCCC(=O)Oc1ccc2[nH]c(C(=O)c3cc4ccccc4[nH]3)cc2c1
96.4
5. CCN(CC)CCNC(=O)c1c(C)[nH]c(/C=C2\C(=O)Nc3ccc(Cl)cc32)c1C
97
6. c1ccc(-c2n[nH]c3c2oc2ccccc23)cc1
92.9

[ask] Quick check: residual activity of CCN(CC)C(=O)c1ccc(Nc2nc(OCC3CCCCC3)c3nc[nH]c3n2)cc1 ?
[reply] 87.9

[ask] Quick check: residual activity of O=C1NC(=O)c2c1c1c3ccccc3n3c1c1c2c2ccccc2n1C1CCC3O1 ?
[reply] 22

---

TARGET ENTITY: NEK7 (human) (UniProt Q8TDX7)
Sequence (Q8TDX7 whole entry, looked up): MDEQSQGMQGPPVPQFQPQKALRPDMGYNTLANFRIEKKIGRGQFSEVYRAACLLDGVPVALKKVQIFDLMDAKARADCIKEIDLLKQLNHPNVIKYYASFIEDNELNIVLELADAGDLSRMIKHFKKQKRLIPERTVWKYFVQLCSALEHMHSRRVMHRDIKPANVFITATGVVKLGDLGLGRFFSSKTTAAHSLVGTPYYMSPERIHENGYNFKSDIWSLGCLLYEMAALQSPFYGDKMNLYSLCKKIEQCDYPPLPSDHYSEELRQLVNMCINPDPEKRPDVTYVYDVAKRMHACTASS
ASSAY COMMENT: radiometric filter-binding kinase assay, Kinase HotSpot
CONDITION PARAMETERS: compound 0.5 µM; ATP 10 µM
OUTCOME MEASURE: residual activity (%)
Note: unit % is implicit; provide only the numeric part.

[ask] Quick check: residual activity of Cc1ccc(S(=O)(=O)/C=C/C#N)cc1 ?
[reply] 93.4

[ask] Quick check: residual activity of O=C1NC(=O)/C(=C/c2ccc3c(c2)OC(F)(F)O3)S1 ?
[reply] 105

[ask] Quick check: residual activity of N#CC(C#N)=C(N)/C(C#N)=C/c1ccc(O)cc1 ?
[reply] 98.9

[ask] Quick check: residual activity of CCC(=O)Nc1ccc2ncnc(Nc3cccc(Br)c3)c2c1 ?
[reply] 92.7

[ask] Quick check: residual activity of CCN(CC)CCNC(=O)c1c(C)[nH]c(/C=C2\C(=O)Nc3ccc(F)cc32)c1C ?
[reply] 93.5

[ask] Quick check: residual activity of COc1ccc(COc2ccc(Cc3cnc(N)nc3N)cc2OC)cc1 ?
[reply] 100

[ask] Quick check: residual activity of COc1cc2ncnc(Nc3cccc(Cl)c3)c2cc1OC ?
[reply] 99

---

# residual activity per entry
TARGET ENTITY: RPS6KA6 KD1 KD2 (human) (UniProt Q9UK32)
Sequence (Q9UK32 whole entry, looked up): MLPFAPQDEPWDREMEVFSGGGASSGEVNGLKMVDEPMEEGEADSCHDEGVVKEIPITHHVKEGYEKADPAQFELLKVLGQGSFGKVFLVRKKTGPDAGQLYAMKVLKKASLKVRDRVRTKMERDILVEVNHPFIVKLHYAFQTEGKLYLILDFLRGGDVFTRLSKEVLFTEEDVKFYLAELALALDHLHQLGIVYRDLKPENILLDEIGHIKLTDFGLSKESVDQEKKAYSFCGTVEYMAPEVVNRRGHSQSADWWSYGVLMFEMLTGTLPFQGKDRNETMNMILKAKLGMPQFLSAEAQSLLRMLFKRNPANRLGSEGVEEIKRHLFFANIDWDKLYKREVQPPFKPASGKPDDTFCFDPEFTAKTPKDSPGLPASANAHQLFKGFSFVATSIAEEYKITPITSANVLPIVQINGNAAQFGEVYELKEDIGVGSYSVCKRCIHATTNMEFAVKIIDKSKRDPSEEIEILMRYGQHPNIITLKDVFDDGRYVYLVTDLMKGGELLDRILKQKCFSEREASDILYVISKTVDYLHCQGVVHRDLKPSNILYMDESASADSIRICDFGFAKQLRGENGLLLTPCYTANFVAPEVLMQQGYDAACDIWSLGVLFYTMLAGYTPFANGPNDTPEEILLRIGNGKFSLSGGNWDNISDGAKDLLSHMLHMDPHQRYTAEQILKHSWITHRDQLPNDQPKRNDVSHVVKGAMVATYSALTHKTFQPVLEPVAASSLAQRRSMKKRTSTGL
ASSAY COMMENT: radiometric filter-binding kinase assay, Kinase HotSpot
CONDITION PARAMETERS: compound 0.5 µM; ATP 10 µM
Write the figure, then the unit, nothing else.

1) CCOC(=O)c1c(C)[nH]c(/C=C2\C(=O)Nc3ccccc32)c1C
87.6%

// next entry
[ask] Quick check: residual activity of Nc1ccc2ncnc(NCCc3ccc(Oc4ccccc4)cc3)c2c1 ?
[reply] 103%

---

TARGET ENTITY: UniProt:Q05513
ASSAY COMMENT: radiometric filter-binding kinase assay, Kinase HotSpot
CONDITION PARAMETERS: compound 0.5 µM; ATP 10 µM
OUTCOME MEASURE: residual activity (%)
Note: unit % is implicit; provide only the numeric part.

Past entries and their recorded results:
1. CCN(CC)C(=O)c1ccc(Nc2nc(OCC3CCCCC3)c3nc[nH]c3n2)cc1
95.8
2. CC(=O)c1ccc(N2CCOCC2)cc1O
111
3. Nc1ncnc2c1c(-c1ccc(Oc3ccccc3)cc1)cn2C1CCCC1
107
4. Nc1ncnc2[nH]nc(Nc3ccc(F)cc3)c12
109

[ask] Quick check: residual activity of O=c1cc(N2CCOCC2)oc2c1ccc1ccccc12 ?
[reply] 106

[ask] Quick check: residual activity of CCN(CC)CCNC(=O)c1c(C)[nH]c(/C=C2\C(=O)Nc3ccc(F)cc32)c1C ?
[reply] 91.7

---

TARGET ENTITY: MAP2K2 (human) (UniProt P36507)
Sequence (P36507 whole entry, looked up): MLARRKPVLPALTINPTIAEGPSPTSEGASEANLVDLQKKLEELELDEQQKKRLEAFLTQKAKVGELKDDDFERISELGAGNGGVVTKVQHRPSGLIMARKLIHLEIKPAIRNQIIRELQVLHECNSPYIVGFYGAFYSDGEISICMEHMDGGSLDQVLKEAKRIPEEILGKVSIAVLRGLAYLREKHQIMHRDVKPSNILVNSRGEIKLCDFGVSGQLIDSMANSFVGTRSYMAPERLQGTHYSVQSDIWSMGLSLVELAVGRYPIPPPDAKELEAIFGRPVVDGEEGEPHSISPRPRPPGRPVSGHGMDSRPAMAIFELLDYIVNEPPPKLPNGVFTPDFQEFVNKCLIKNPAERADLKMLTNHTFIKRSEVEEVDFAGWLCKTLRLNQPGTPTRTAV
ASSAY COMMENT: radiometric filter-binding kinase assay, Kinase HotSpot
CONDITION PARAMETERS: compound 0.5 µM; ATP 10 µM
OUTCOME MEASURE: residual activity (%)
Note: unit % is implicit; provide only the numeric part.

Past entries and their recorded results:
1) COc1cc2ncnc(Nc3cccc(Cl)c3)c2cc1OC
102
2) CCN(CC)CCNC(=O)c1c(C)[nH]c(/C=C2\C(=O)Nc3ccc(F)cc32)c1C
25.4
3) CO[C@H]1CC2CC[C@@H](C)[C@@](O)(O2)C(=O)C(=O)N2CCCC[C@H]2C(=O)OC([C@H](C)C[C@@H]2CC[C@@H](O)[C@H](OC)C2)CC(=O)[C@H](C)/C=C(\C)[C@@H](O)[C@@H](OC)C(=O)[C@H](C)C[C@H](C)/C=C/C=C/C=C/1C (stereo not given in full)
103
4) N#CC(C#N)=C(N)/C(C#N)=C/c1ccc(O)cc1
103
5) CCCC(=O)Oc1ccc2[nH]c(C(=O)c3cc4ccccc4[nH]3)cc2c1
98.7

[ask] Give recorded residual activity with MAP2K2 (human) (UniProt P36507) for the following compound: CCC(=O)Nc1ccc2ncnc(Nc3cccc(Br)c3)c2c1
[reply] 85.1

[ask] Give recorded residual activity with MAP2K2 (human) (UniProt P36507) for the following compound: c1ccc(-c2n[nH]c3c2oc2ccccc23)cc1
[reply] 85.8

[ask] Give recorded residual activity with MAP2K2 (human) (UniProt P36507) for the following compound: Cc1ccc(S(=O)(=O)/C=C/C#N)cc1
[reply] 91

[ask] Give recorded residual activity with MAP2K2 (human) (UniProt P36507) for the following compound: Nc1cccc(-c2cc3c(Oc4cccc(O)c4)ncnc3[nH]2)c1
[reply] 104

[ask] Give recorded residual activity with MAP2K2 (human) (UniProt P36507) for the following compound: CNc1cc2c(Nc3cccc(Br)c3)ncnc2cn1
[reply] 90.4

[ask] Give recorded residual activity with MAP2K2 (human) (UniProt P36507) for the following compound: COc1ccc(COc2ccc(Cc3cnc(N)nc3N)cc2OC)cc1
[reply] 101

[ask] Give recorded residual activity with MAP2K2 (human) (UniProt P36507) for the following compound: CNC(=O)c1cc(Oc2ccc(NC(=O)Nc3ccc(Cl)c(C(F)(F)F)c3)cc2)ccn1
[reply] 89.7

[ask] Give recorded residual activity with MAP2K2 (human) (UniProt P36507) for the following compound: Cc1ccc(Nc2nccc(N(C)c3ccc4c(C)n(C)nc4c3)n2)cc1S(N)(=O)=O
[reply] 94.8

[ask] Give recorded residual activity with MAP2K2 (human) (UniProt P36507) for the following compound: O=S(=O)(c1cccc2cnccc12)N1CCCNCC1
[reply] 117

[ask] Give recorded residual activity with MAP2K2 (human) (UniProt P36507) for the following compound: CCN(CC)CCNC(=O)c1c(C)[nH]c(/C=C2\C(=O)Nc3ccc(Cl)cc32)c1C
[reply] 41.4

[ask] Give recorded residual activity with MAP2K2 (human) (UniProt P36507) for the following compound: Nc1ccc2ncnc(NCCc3ccc(Oc4ccccc4)cc3)c2c1
[reply] 94.9

[ask] Give recorded residual activity with MAP2K2 (human) (UniProt P36507) for the following compound: CC(C)N(CCC(=O)c1ccc2ccccc2c1)Cc1ccccc1
[reply] 92.5

[ask] Give recorded residual activity with MAP2K2 (human) (UniProt P36507) for the following compound: O=C1NC(=O)C(c2cn(CCCn3ccnc3)c3ccccc23)=C1Nc1ccccc1
[reply] 102

[ask] Give recorded residual activity with MAP2K2 (human) (UniProt P36507) for the following compound: O=C(Nc1cccc(Nc2nccc(Nc3cccc(C(F)(F)F)c3)n2)c1)C1CC1
[reply] 89.2

[ask] Give recorded residual activity with MAP2K2 (human) (UniProt P36507) for the following compound: CC#CC(=O)Nc1cc2c(Nc3ccc(F)c(Cl)c3)ncnc2cn1
[reply] 106
